The measured values listed here are drawn from ChEMBL document CHEMBL4219237.

Test system: Mus musculus
experiment summary: Antiinflammatory activity in mouse assessed as inhibition of para-xylene-induced ear edema at 100 mg/kg, ip administered 30 mins prior to para-xylene challenge measured after 30 mins relative to control
Assay type: functional
Consider the following compounds; for each one, report its inhibition in vivo at 100 mg/kg.
Your answer should be a plain number; it is taken to be in %.

Record summary for "C[C@H]1[C@H](C)CC[C@]2(C(=O)OCc3nnc(-c4cccc(Cl)c4)o3)CC[C@]3(C)C(=CC[C@@H]4[C@@]5(C)CC[C@H](O)C(C)(C)[C@@H]5CC[C@]43C)[C@H]12" : reported inhibition in vivo at 100 mg/kg = 65.4

# compound "C[C@H]1[C@H](C)CC[C@]2(C(=O)OCc3nnc(-c4ccc(Br)cc4)o3)CC[C@]3(C)C(=CC[C@@H]4[C@@]5(C)CC[C@H](O)C(C)(C)[C@@H]5CC[C@]43C)[C@H]12" ; its inhibition in vivo at 100 mg/kg = 68.9

Sample "C[C@H]1[C@H](C)CC[C@]2(C(=O)OCc3nnc(-c4ccccc4)o3)CC[C@]3(C)C(=CC[C@@H]4[C@@]5(C)CC[C@H](O)C(C)(C)[C@@H]5CC[C@]43C)[C@H]12" ; inhibition in vivo at 100 mg/kg observed: 62.3

Form: compound = "C[C@H]1[C@H](C)CC[C@]2(C(=O)OCCCN3CCN(Cc4nnc(-c5ccccc5Cl)o4)CC3)CC[C@]3(C)C(=CC[C@@H]4[C@@]5(C)CC[C@H](O)C(C)(C)[C@@H]5CC[C@]43C)[C@H]12" ; inhibition in vivo at 100 mg/kg = 32

Record summary for "C[C@H]1[C@H](C)CC[C@]2(C(=O)OCCCCCn3ncn(-c4ccccc4)c3=O)CC[C@]3(C)C(=CC[C@@H]4[C@@]5(C)CC[C@H](O)C(C)(C)[C@@H]5CC[C@]43C)[C@H]12" : reported inhibition in vivo at 100 mg/kg = 56.7

Record "C[C@H]1[C@H](C)CC[C@]2(C(=O)OCCCN3CCN(Cc4nnc(-c5ccc(F)cc5)o4)CC3)CC[C@]3(C)C(=CC[C@@H]4[C@@]5(C)CC[C@H](O)C(C)(C)[C@@H]5CC[C@]43C)[C@H]12" . Reported inhibition in vivo at 100 mg/kg: 58.7

inhibition in vivo at 100 mg/kg recorded for this compound, "Cc1ccc(-c2nnc(COC(=O)[C@]34CC[C@@H](C)[C@H](C)[C@H]3C3=CC[C@@H]5[C@@]6(C)CC[C@H](O)C(C)(C)[C@@H]6CC[C@@]5(C)[C@]3(C)CC4)o2)cc1" , is 58.2

Record "C[C@H]1[C@H](C)CC[C@]2(C(=O)OCCCn3ncn(-c4ccccc4)c3=O)CC[C@]3(C)C(=CC[C@@H]4[C@@]5(C)CC[C@H](O)C(C)(C)[C@@H]5CC[C@]43C)[C@H]12" , field inhibition in vivo at 100 mg/kg: 69.8
